Origin of values: the supplement of paper PMC10646978

System: RAW-Dual (murine macrophage reporter line)
test: NF-kB reporter (SEAP) activity fold change vs agonist alone; higher = enhanced NF-kB activity
condition_details: modulator concentration 10 µM; agonist: MPLA […]
Decide by NF-kB reporter: equal to or exceeding 1 means Y, less means N.

See these solved cases before continuing.
[
  {
    "molecule": "O=C(O)c1ccc(-n2nc(-c3ccccc3O)nc2-c2ccccc2O)cc1",
    "discrete_label": "Y"
  },
  {
    "molecule": "CC(c1ccccc1)c1nnc(NC(=O)c2ccco2)s1 (configuration not stated)",
    "discrete_label": "Y"
  },
  {
    "molecule": "Brc1ccc2ncnc(Nc3ccccc3)c2c1",
    "discrete_label": "Y"
  },
  {
    "molecule": "Nc1ncnc2c1nc(S)n2C1OC(CO)C(O)C1O (configuration not stated)",
    "discrete_label": "N"
  }
]

Then there is this molecule:
Quick check, NF-kB reporter >= 1? Cc1ccc(C(CNC(=O)NC2CCCC2)OCCO)cc1 (configuration not stated)
N

###

Measured IRF reporter accompanies every entry in the list below.
System: RAW-Dual (murine macrophage reporter line)
test: IRF reporter (Lucia luciferase) activity fold change vs agonist alone; higher = enhanced IRF activity
condition_details: modulator concentration 10 µM; agonist: LPS 0.1 ug/mL
Reply: number alone, nothing else.

Requested read-out IRF reporter, target or system RAW-Dual (murine macrophage reporter line), entry `O=C(NCCCOc1cccc2cccnc12)c1cnccn1`
1.01

Next: Cc1c(Cl)ccc2c1NC(C(=O)O)C1CC=CC21 (configuration not stated)
1.19

Next: `Cc1cc(C(=O)Nc2nnc(-c3ccc(F)cc3)o2)n(C)n1`
1.18

Next: `CC(C)(C)c1ccc(=O)n(CC2CN(S(C)(=O)=O)C2)n1`
1.15

###

Tested on: RAW-Dual (murine macrophage reporter line)
test: NF-kB reporter (SEAP) activity fold change vs agonist alone; higher = enhanced NF-kB activity
condition_details: modulator concentration 10 µM; agonist: LPS 0.1 ug/mL
assay_metric: NF-kB reporter
Reply: number alone, nothing else.

For the molecule shown here, `O=S(=O)(NCCn1ccn2nccc12)c1ccccc1Br` , give the reported NF-kB reporter.
0.904

Next: `COc1ccc(Cl)cc1NS(=O)(=O)c1c(C)cc(C)cc1C`
0.937

Next: `Cc1ccccc1Oc1ccc(S(=O)(=O)N2CCCC2)cc1`
1.02

###

Measured IRF reporter accompanies every entry in the list below.
Tested on: RAW-Dual (murine macrophage reporter line)
test: IRF reporter (Lucia luciferase) activity fold change vs agonist alone; higher = enhanced IRF activity
condition_details: modulator concentration 10 µM; agonist: MPLA […]
Reply: number alone, nothing else.

Please review the entries below; each comes with its answer.
[
  {
    "compound": "CC(C)CN(CC(O)C(Cc1ccccc1)NC(=O)OC1COC2OCCC12)S(=O)(=O)c1ccc(N)cc1 (stereo unspecified)",
    "IRF reporter": 0.953
  },
  {
    "compound": "CCCCOc1ccc(OCCCN2CCOCC2)cc1.Cl",
    "IRF reporter": 0.836
  },
  {
    "compound": "CC(Cc1ccc(O)c(O)c1)(NN)C(=O)O (stereo unspecified)",
    "IRF reporter": 1.38
  },
  {
    "compound": "O=[N+]([O-])c1ccc(-n2cccc2C=NNc2nc(N3CCOCC3)nc(N3CCOCC3)n2)cc1",
    "IRF reporter": 1.25
  },
  {
    "compound": "Oc1ccc(CN2CCOCC2)cc1",
    "IRF reporter": 1.25
  }
]

Let us move to another entry and its IRF reporter.
For the compound shown here, `CC(=O)O.CCN(CC)CC#CC1(O)CCCCC1` , give the reported IRF reporter.
1.06
